# credit: patent US9650395B2

# Tested on: super sensitive Gram-negative Escherichia coli (E. coli) BAS849
# PROTOCOL_DESCRIPTION: Antibacterial activity, microbroth dilution MIC, E. coli BAS849
# Format: cell-based
# ASSAY_SETUP: Escherichia coli; E. coli BAS849, microbroth dilution; read-out: MIC, BAS849
QUANTITY: MIC

Reported MIC for CCc1c(-c2ccc(OC)cc2N2CCCC2)[nH]c(=O)c(C(=O)O)c1O [Cpd 48] : what is it?
3.5 to 12.5 µg/mL

Moving on to the next compound: Cc1c(-c2ccc(N3CCCC3)cn2)[nH]c(=O)c(C(=O)O)c1O [Cpd 315]
1 to 3.5 µg/mL

Record: CCc1c(-c2ccc(N3CCCC3)c(C)c2)[nH]c(=O)c(C(=O)O)c1O [Cpd 71]
1 to 3.5 µg/mL

Then this compound: CCc1c(-c2ccc(N3CC[C@@H](O)C3)cc2)[nH]c(=O)c(C(=O)O)c1O [Cpd 124]
< 1 µg/mL

Subsequent entry: CCc1cc(C(=O)O)c(=O)[nH]c1-c1ccc(N2CCC[C@@H]2COC)cc1 [Cpd 147]
< 1 µg/mL

Then this compound: CCc1c(-c2ccc(N3CCNCC3)cn2)[nH]c(=O)c(C(=O)O)c1O [Cpd 113]
3.5 to 12.5 µg/mL

Same again, this time with CCc1cc(C(=O)O)c(=O)[nH]c1-c1ccc(N2CCCCC2)s1 [Cpd 308]
1 to 3.5 µg/mL

# repeat for CCc1c(-c2ccc(N(C)C)s2)[nH]c(=O)c(C(=O)O)c1O [Cpd 306]
< 1 µg/mL

Next: CCc1c(-c2ccc(N3C[C@H]4CN(C)C[C@H]4C3)cc2)[nH]c(=O)c(C(=O)O)c1O.Cl [Cpd 273]
< 1 µg/mL

Record: CCc1c(-c2ccc(N3CC4=CCCC[C@@H]4C3)cc2)[nH]c(=O)c(C(=O)O)c1O.Cl [Cpd 297]
< 1 µg/mL

Then CCc1cc(C(=O)O)c(=O)[nH]c1-c1ccc(N2CCCCC2)c(OC)c1 [Cpd 68] ?
12.5 to 150 µg/mL

Please answer likewise for CCc1cc(C(=O)O)c(=O)[nH]c1-c1ccc(F)cc1 [Cpd 26]
12.5 to 150 µg/mL

How about CCc1cc(C(=O)O)c(=O)[nH]c1-c1ccc(N2CCC(c3ccncc3)C2)cc1 (stereo not drawn) [Cpd 226] ?
< 1 µg/mL

What would you report for CCc1c(-c2ccc(N3CC4CCCN(C(=O)OC(C)(C)C)C4C3)cc2)[nH]c(=O)c(C(=O)O)c1O (stereo not drawn) [Cpd 253] ?
< 1 µg/mL

Now try CCc1cc(C(=O)O)c(=O)[nH]c1-c1ccc(N2CCCC2c2ccccc2)cc1 (stereo not drawn) [Cpd 145] .
< 1 µg/mL

# repeat for CN(C)c1ccc(-c2[nH]c(=O)c(C(=O)O)c(O)c2CC(O)CO)cc1 (stereo not drawn) [Cpd 329]
12.5 to 150 µg/mL

Now consider CCc1cc(C(=O)O)c(=O)[nH]c1-c1ccc(N2CC(O)C2)cc1 [Cpd 121] and answer again.
< 1 µg/mL

Can you check CC(C)c1cc(C(=O)O)c(=O)[nH]c1-c1ccc(N(C)C)cc1 [Cpd 95] next?
< 1 µg/mL

Same again, this time with CCc1cc(C(=O)O)c(=O)[nH]c1-c1ccc(C#N)cc1 [Cpd 15]
12.5 to 150 µg/mL

Now try CCc1cc(C(=O)O)c(=O)[nH]c1-c1ccc(N2CCC(C)(CN)C2)cc1 (stereo not drawn) [Cpd 235] .
1 to 3.5 µg/mL

For CCc1c(-c2ccc(N(C)C)c(OC)c2)[nH]c(=O)c(C(=O)O)c1O [Cpd 65] then?
3.5 to 12.5 µg/mL

Follow-up entry: CCc1c(-c2ccc(N3CCCCC3)cc2C)[nH]c(=O)c(C(=O)O)c1O [Cpd 51]
3.5 to 12.5 µg/mL

Param item: CCc1c(-c2ccc(CCN(C)C)cc2)[nH]c(=O)c(C(=O)O)c1O [Cpd 343]
3.5 to 12.5 µg/mL

Another compound: CCc1cc(C(=O)O)c(=O)[nH]c1-c1ccc(N2CCC(CNCc3ccc(Cl)cc3)C2)cc1 (stereo not drawn) [Cpd 237]
< 1 µg/mL

Now the compound CCc1cc(C(=O)O)c(=O)[nH]c1-c1ccnn1C [Cpd 344]
12.5 to 150 µg/mL

Can you handle CN(C)c1ccc(-c2[nH]c(=O)c(C(=O)O)cc2C#N)cc1 [Cpd 14] next?
12.5 to 150 µg/mL

Proceed to CCc1cc(C(=O)O)c(=O)[nH]c1-c1ccc(N2CCC[C@H]2C(F)(F)F)cc1 [Cpd 142]
1 to 3.5 µg/mL

Can you handle CCc1c(-c2ccc(N3C[C@@H](O)[C@@H](O)C3)cc2)[nH]c(=O)c(C(=O)O)c1O [Cpd 304] next?
< 1 µg/mL

Consider next the compound CCc1cc(C(=O)O)c(=O)[nH]c1-c1ccc(N2CCC(c3ccccn3)C2)cc1 (stereo not drawn) [Cpd 227] in the same way.
< 1 µg/mL

One more compound: CCc1c(-c2ccc(N3CC=CC3)cc2)[nH]c(=O)c(C(=O)O)c1O [Cpd 302]
< 1 µg/mL

And for CCc1cc(C(=O)O)c(=O)[nH]c1-c1ccc(N2CCCCC2)cc1F [Cpd 43] ?
< 1 µg/mL

Then what about the compound C=CCN(CC=C)c1ccc(-c2[nH]c(=O)c(C(=O)O)cc2CC)cc1 [Cpd 299] ?
1 to 3.5 µg/mL

Lookup CCc1cc(C(=O)O)c(=O)[nH]c1-c1ccc(N2CCCCC2)c(C)c1 [Cpd 72]
3.5 to 12.5 µg/mL

What do you have for CCc1cc(C(=O)O)c(=O)[nH]c1-c1ccc(N2CCCC2)cc1OC [Cpd 50] ?
12.5 to 150 µg/mL

And what about the compound CCc1cc(C(=O)O)c(=O)[nH]c1-c1ccc(N2C(=O)CCC2C)cc1 (stereo not drawn) [Cpd 116] ?
12.5 to 150 µg/mL

Would you mind doing CCc1cc(C(=O)O)c(=O)[nH]c1-c1ccc(Cl)cc1 [Cpd 76] as well?
12.5 to 150 µg/mL

----------
# System: super sensitive Gram-negative Escherichia coli (E. coli) BAS849
# PROTOCOL_DESCRIPTION: Antibacterial activity, microbroth dilution MIC, E. coli BAS849
# Assay type: cell-based
# ASSAY_SETUP: Escherichia coli; E. coli BAS849, microbroth dilution; read-out: MIC, BAS849
QUANTITY: MIC

Record request: MIC value, item CCc1c(-c2ccnn2C)[nH]c(=O)c(C(=O)O)c1O [Cpd 345]
12.5 to 150 µg/mL

Note, next up: CCc1cc(C(=O)O)c(=O)[nH]c1-c1ccc(N2CC3CCCNC3C2)cc1.Cl (centres unmarked) [Cpd 213]
1 to 3.5 µg/mL

Further, for CCc1c(-c2ccc(N3C[C@H]4CC[C@@H](NC)[C@H]4C3)cc2)[nH]c(=O)c(C(=O)O)c1O.Cl [Cpd 256] ?
< 1 µg/mL

How about CCc1c(-c2ccc(C3=CCNCC3)cc2)[nH]c(=O)c(C(=O)O)c1O [Cpd 340] ?
3.5 to 12.5 µg/mL

Same question, CN(C)c1ccc(-c2[nH]c(=O)c(C(=O)O)cc2C2CCCCC2)cc1 [Cpd 6] this time
3.5 to 12.5 µg/mL

Try CCc1cc(C(=O)O)c(=O)[nH]c1-c1ccc(N2CCCCC2)cc1 [Cpd 108] next.
< 1 µg/mL

Field entry: Cc1c(-c2ccc(N(C)C)cc2)[nH]c(=O)c(C(=O)O)c1O [Cpd 5]
< 1 µg/mL

// query: CCc1cc(C(=O)O)c(=O)[nH]c1-c1ccc(N2[C@H](COC)CC[C@H]2COC)cc1 [Cpd 148]
3.5 to 12.5 µg/mL

Repeat for the following molecule: CCc1c(-c2ccc(N3CCC(N(C)C)C3)nc2)[nH]c(=O)c(C(=O)O)c1O (centres unmarked) [Cpd 335]
3.5 to 12.5 µg/mL

Please do the same for CCc1c(-c2ccc(N3CCCC3)nc2)[nH]c(=O)c(C(=O)O)c1O [Cpd 336] as well.
1 to 3.5 µg/mL

Now consider CCc1c(-c2c(OC)cc(OC)cc2OC)[nH]c(=O)c(C(=O)O)c1O [Cpd 41] and answer again.
12.5 to 150 µg/mL

// next record CN(C)c1ccc(-c2[nH]c(=O)c(C(=O)O)cc2CN)cc1.Cl [Cpd 22]
12.5 to 150 µg/mL

Proceed to CCc1c(-c2ccc(N3CC4(CNC4)C3)cc2)[nH]c(=O)c(C(=O)O)c1O [Cpd 324]
3.5 to 12.5 µg/mL

Record: CCc1c(-c2ccc(N3CCCCC3)c(OC)c2)[nH]c(=O)c(C(=O)O)c1O [Cpd 69]
3.5 to 12.5 µg/mL

// same read-out, input: CCc1c(-c2ccc(N3CCC(N4CCCC4)C3)cc2)[nH]c(=O)c(C(=O)O)c1O.Cl (centres unmarked) [Cpd 257]
< 1 µg/mL

Next record, please: CCc1c(-c2ccc(N3C[C@H]4CCC[C@@H](N(C)C)[C@H]4C3)cc2)[nH]c(=O)c(C(=O)O)c1O.Cl [Cpd 261]
< 1 µg/mL

Again, but for CCc1c(-c2ccc(N3CCC[C@@H](O)C3)cc2)[nH]c(=O)c(C(=O)O)c1O [Cpd 125]
< 1 µg/mL

Continue with CCc1c(-c2ccc(N3C[C@H]4CCCC[C@@]4(CN(C)C)C3)cc2)[nH]c(=O)c(C(=O)O)c1O.Cl [Cpd 266]
1 to 3.5 µg/mL

Item: CCc1cc(C(=O)O)c(=O)[nH]c1-c1ccc(N2CC[C@H](N)C2)cc1.Cl [Cpd 132]
< 1 µg/mL

Record: CCc1cc(C(=O)O)c(=O)[nH]c1-c1ccc(N(C)CCO)cc1 [Cpd 17]
< 1 µg/mL

Now consider CCc1cc(C(=O)O)c(=O)[nH]c1-c1cnn(C)c1 [Cpd 346] and answer again.
12.5 to 150 µg/mL

And then CCc1c(-c2ccc(N3C[C@H]4CC[C@@H](N(C)C)[C@H]4C3)cc2)[nH]c(=O)c(C(=O)O)c1O.Cl [Cpd 263] , what is it?
< 1 µg/mL

Now give it for CCc1c(-c2ccc(N3C[C@H]4C[C@@H](NCc5ccccc5)C[C@H]4C3)cc2)[nH]c(=O)c(C(=O)O)c1O [Cpd 250] too.
3.5 to 12.5 µg/mL

Item: CCc1cc(C(=O)O)c(=O)[nH]c1-c1ccc(N(C)C)c(F)c1 [Cpd 93]
< 1 µg/mL

Try CC(C)c1cc(C(=O)O)c(=O)[nH]c1-c1ccc(N2CCCC2)cc1 [Cpd 163] next.
< 1 µg/mL

Repeat for the following molecule: CCc1c(-c2ccc(C3CCN(C)CC3)cc2)[nH]c(=O)c(C(=O)O)c1O [Cpd 338]
12.5 to 150 µg/mL

Same for O=C(O)c1c(O)cc(-c2ccc(N3CCCC3)cc2)[nH]c1=O [Cpd 21]
3.5 to 12.5 µg/mL

And what about the molecule CN(C)c1ccc(-c2[nH]c(=O)c(C(=O)O)c(O)c2CC=O)cc1 [Cpd 327] ?
3.5 to 12.5 µg/mL

Follow-up entry: CCc1cc(C(=O)O)c(=O)[nH]c1-c1ccc(N2CCC[C@@H]2C(F)(F)F)cc1 [Cpd 141]
< 1 µg/mL

What would you report for CCc1cc(C(=O)O)c(=O)[nH]c1-c1ccc(CN2CCCC2)n1C [Cpd 350] ?
12.5 to 150 µg/mL

And for CCc1c(-c2ccc(N(C)C)cc2)[nH]c(=O)c(C(=O)O)c1O [Cpd 90] ?
< 1 µg/mL

Further, for CCc1c(-c2ccc(N3CCC4(CCN(C)C4)C3)cc2)[nH]c(=O)c(C(=O)O)c1O (centres unmarked) [Cpd 322] ?
< 1 µg/mL

Now the same for CCc1cc(C(=O)O)c(=O)[nH]c1-c1ccc(N2CC(OC3CCCCO3)C2)cc1 (centres unmarked) [Cpd 120]
< 1 µg/mL

Note, next up: CCc1c(-c2ccc(N3CCCC3)cc2)[nH]c(=O)c(C(=O)O)c1O [Cpd 100]
< 1 µg/mL

Subsequent entry: CCc1cc(C(=O)O)c(=O)[nH]c1-c1cc(CN2CCCC2)n(C)c1 [Cpd 348]
3.5 to 12.5 µg/mL
